Molecular target: Mitogen-activated protein kinase 3 (Homo sapiens, UniProt P27361)
Sequence (P27361 whole entry): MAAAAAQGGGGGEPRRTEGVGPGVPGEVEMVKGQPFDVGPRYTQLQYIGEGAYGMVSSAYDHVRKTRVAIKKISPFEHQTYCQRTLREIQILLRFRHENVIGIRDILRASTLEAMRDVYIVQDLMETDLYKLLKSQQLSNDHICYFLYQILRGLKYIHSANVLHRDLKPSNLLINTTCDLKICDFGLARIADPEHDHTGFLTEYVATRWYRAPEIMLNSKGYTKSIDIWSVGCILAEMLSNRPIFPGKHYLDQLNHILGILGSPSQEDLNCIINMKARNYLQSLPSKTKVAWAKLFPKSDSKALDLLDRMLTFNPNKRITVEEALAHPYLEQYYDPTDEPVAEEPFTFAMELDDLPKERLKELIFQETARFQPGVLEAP
Label rule, in plain words: ΔTm of 0.3 °C and up is yes, under 0.3 °C is no.

# Compound, Answer label
measured = [
    ("O=C1C=C2C(=Nc3c2c2c(c4c3=NC3=C4CCC=C3)C=NC=2)CC1", "yes"),
    ("CCCNC(=O)Nc1ccc(Oc2ncnc3cc(OC)c(OC)cc23)cc1Cl", "yes"),
    ("CN[C@@H]1CC2O[C@@](C)([C@@H]1OC)n1c3ccccc3c3c4c(c5c6ccccc6n2c5c31)C(=O)NC4", "yes"),
    ("CSc1nc(-c2ccc(F)cc2)c(-c2ccnc(NC(C)c3ccccc3)c2)[nH]1 (racemic)", "no"),
    ("Cn1cnc2c(NCc3ccccc3)nc(NCCO)nc21", "no"),
    ("CN(C)c1ccc(CC2C(=O)Nc3ccccc32)cc1 (stereo not given)", "yes"),
    ("O=C1Nc2cc(Br)ccc2/C1=C1/Nc2ccccc2/C1=N\\O", "yes"),
    ("O=S(=O)(NCCNC/C=C/c1ccc(Br)cc1)c1cccc2cnccc12", "no"),
    ("CC(C)(C)c1cc(C=C2C(=O)C=CC2=O)cc(C(C)(C)C)c1O", "no"),
]

---

As a worked illustration, we turn to ΔTm data collected for Tyrosine-protein kinase JAK1 (Homo sapiens).

# Smiles code, ΔTm (°C)
data = [
    ("N#C/C(=C\\c1ccc(O)c(O)c1)C(=O)Nc1ccccc1", 0.8),
    ("O=C1NC(=O)c2c1c1c3ccccc3n3c1c1c2c2ccccc2n1C1CCC3O1", -0.2),
    ("O=c1c(-c2ccc(O)cc2)coc2cc(O)cc(O)c12", -0.2),
    ("COc1cc(C[C@H]2C(=O)OC[C@@H]2Cc2ccc(OC)c(OC)c2)ccc1O", -0.1),
    ("O=C1Cc2c([nH]c3ccc([N+](=O)[O-])cc23)-c2ccccc2N1", 1),
]

---

Target: TRAF2 and NCK-interacting protein kinase (Homo sapiens)

# Smiles code, ΔTm, °C
records = [
    ("COc1ccc(COc2ccc(Cc3cnc(N)nc3N)cc2OC)cc1", 0.1),
    ("O=C1Nc2ccc(I)cc2/C1=C1/Nc2ccccc2/C1=N\\O", 5.2),
    ("Cn1cc(C2=C(c3cn(CCCN)c4ccccc34)C(=O)NC2=O)c2ccccc21", 0.8),
    ("NC(=O)c1ccc(-c2nc(-c3ccc4c(c3)OCCO4)c(-c3ccccn3)[nH]2)cc1", -0.6),
    ("Cc1[nH]c(/C=C2\\C(=O)Nc3ccc(S(=O)(=O)N(C)c4cccc(Cl)c4)cc32)c(C)c1C(=O)N1CCN(C)CC1", 0.4),
]

---

Biological target: Serine/threonine-protein kinase 17A (Homo sapiens)
// bucketize ΔTm: class A = under 0.8 °C, class B = from 0.8 °C up to 2 °C, class C = 2 °C and over

# Compound, Answer label
rows = [
    ("CCOc1ccc(/C=C2/SC(=O)N(CCN)C2=O)cc1 [HIAZOLIDINEDIONE1]", "class A"),
    ("Cc1ccc(NC(=O)c2ccc(CN3CCN(C)CC3)cc2)cc1Nc1nccc(-c2cccnc2)n1", "class B"),
    ("O=C1Nc2ccc(I)cc2/C1=C\\c1cc(Br)c(O)c(Br)c1", "class C"),
    ("CC(C)n1cnc2/c(=N/c3cccc(Cl)c3)nc(NCCO)[nH]c21", "class B"),
    ("CC[C@H](CO)Nc1nc(NCc2ccccc2)c2ncn(C(C)C)c2n1 [SELICICLIB]", "class A"),
    ("Oc1ccc(-c2nc(-c3ccc(F)cc3)c(-c3ccncc3)[nH]2)cc1", "class B"),
    ("O=S(=O)(c1cccc2c(Cl)cccc12)N1CCCNCC1", "class A"),
    ("COc1ccc(CNc2nc(N(CCO)CCO)nc3c2ncn3C(C)C)cc1", "class A"),
    ("CC(C)(C)c1nc2c3ccc(F)cc3c3c(=O)[nH]ccc3c2[nH]1", "class C"),
    ("O=C1Nc2ccc(S(=O)(=O)O)cc2/C1=C1/Nc2ccccc2/C1=N\\O", "class C"),
    ("O=Nc1c(-c2c(O)[nH]c3ccccc23)[nH]c2ccccc12", "class C"),
    ("N#C/C(=C\\c1ccc(O)c(O)c1)C(=O)NCc1ccccc1", "class C"),
    ("O=C(O)c1cc(NCc2cc(O)ccc2O)ccc1O", "class A"),
    ("O=C1Cc2c([nH]c3ccc(Br)cc23)-c2ccccc2N1 [KENPAULLONE]", "class C"),
    ("NS(=O)(=O)c1ccc(Nc2nc(OCC3CCCCC3)c3nc[nH]c3n2)cc1", "class B"),
    ("Oc1cccc(-c2nc(N3CCOCC3)c3oc4ncccc4c3n2)c1", "class B"),
    ("N=C(N)NCCNS(=O)(=O)c1cccc2cnccc12", "class A"),
    ("Cn1cc(C2=C(c3cn(CCCN)c4ccccc34)C(=O)NC2=O)c2ccccc21", "class C"),
]
